Biological target: NADPH oxidase 5 (Homo sapiens)
Assay: NOX5-dependent H2O2 signal modulators, primary screen, NOX inhibitor project, cell-based, HEK293-NOX5, Amplex Red fluorescence (AID 1161)
Details: HEK293-NOX5, ionomycin, 45 min, higher = more signal
readout-name: z-score

Can you share its z-score? I mean this compound: COc1cc2c(cc1OC)CN(C(=O)[C@@H]1[C@H]3C(=O)O[C@H](c4ccccc4)[C@H](c4ccccc4)N3[C@H](c3ccc(OCCO)cc3)[C@@]13C(=O)Nc1ccc(C#CC4(O)CCCCCC4)cc13)CC2 1.82

Can you share its z-score? I mean this compound: CC(C)(C)OC(=O)CC[C@]1(C(=O)NCC(O)CO)N=C(c2ccc(OCCCO)cc2)O[C@H]1c1ccccc1 (some centres not stated) 0.199

Can you share its z-score? I mean this compound: COC(=O)Cn1c(C(=O)N(C)C)cc2c1C[C@H]1CN(C(=O)c3ccccc3)[C@@](Cc3ccc(F)cc3)(C(=O)OC)[C@@H]21 -1.26

Can you share its z-score? I mean this compound: COC(=O)[C@@]1(Cc2ccccc2)[C@@H]2C(=CC(=O)[C@H]2CC(=O)C(=O)N(C)C)CN1C(=O)c1ccccc1 0.16

Can you share its z-score? I mean this compound: CC[C@H]1C2=C3C(CC[C@H]4C(OCc5ccc(F)cc5C(F)(F)F)OC[C@](C)([C@@H]34)N(C(=O)OC(C)(C)C)C2)C(COC)C1COC (some centres not stated) -1.54

Can you share its z-score? I mean this compound: CN(C)CCCNC(=O)[C@@]1(c2ccc([N+](=O)[O-])cc2)CC(=O)N(CC23CC4CC(CC(C4)C2)C3)[C@@H]1c1ccc(CO)cc1I -7.32

Can you share its z-score? I mean this compound: CN1C(=O)C2C=CC(C(O)C#Cc3ccccc3)N(Nc3ccccc3)C2C1=O (configuration not stated) -1.8

Can you share its z-score? I mean this compound: CN(C)CCCNC(=O)[C@@]1(C)c2ccccc2C(=O)N(Cc2ccccc2)[C@H]1c1ccc(CO)cc1 0.6

Can you share its z-score? I mean this compound: O=C1O[C@H](c2ccccc2)[C@H](c2ccccc2)N2[C@H]1[C@@H](C(=O)Nc1nc3ccccc3s1)[C@]1(C(=O)Nc3ccc(C#CCCO)cc31)[C@H]2c1ccc(O)cc1 -0.901

Can you share its z-score? I mean this compound: CN(C)C(=O)[C@@]1(Cc2ccccc2CN=[N+]=[N-])N=C(c2ccc(OCCCO)cc2)O[C@H]1c1ccccc1CN=[N+]=[N-] 2.09

Can you share its z-score? I mean this compound: COc1ccc(CCNC(=O)[C@@H]2c3ccccc3C(=O)N(Cc3cc(C(F)(F)F)cc(C(F)(F)F)c3)[C@H]2c2ccc(CO)cc2)cc1 -0.077

Can you share its z-score? I mean this compound: C#CCN([C@@H](Cc1ccc(O)cc1)C(=O)OC)[C@@H](/C=C/C1CC1)[C@H](O)Cc1ccccc1 -1.58

Can you share its z-score? I mean this compound: CC(C)N1C(=O)C[C@@](C(=O)NCCCN(C)C)(c2ccc([N+](=O)[O-])cc2)[C@H]1c1ccc(CO)cc1 -0.00257

Can you share its z-score? I mean this compound: Cc1cc(C)c(C(O)C2C=CC3C(=O)NC(=O)C3N2Nc2ccc(Cl)cc2Cl)c(C)c1 (configuration not stated) -1.3

Can you share its z-score? I mean this compound: C=CCC(OC(C)=O)[C@@H]1[C@@H](N(Cc2cccc3ccccc23)C(=O)Cc2ccc(OC)cc2)c2cc(OCCCO)ccc2N1C(=O)c1ccc2ccccc2n1 (some centres not stated) -1.25

Can you share its z-score? I mean this compound: CCOC(=O)[C@H]1[C@@H]2C(=O)N3CCC[C@H]3[C@H](O[Si](C(C)C)(C(C)C)C(C)C)[C@H]2C=C2CCN(S(=O)(=O)c3ccc(C)cc3)C[C@H]21 1.69

Can you share its z-score? I mean this compound: C=CCOC(=O)[C@H]1[C@@H]2C(=O)O[C@@H](c3ccccc3)[C@@H](c3ccccc3)N2[C@@H](c2ccc(OCCOC(=O)[C@@H]3C[C@@H]4C(=O)N[C@@H](CCCCN(C)C)C(=O)N4[C@@H]3c3ccc(O)cc3)cc2)[C@]12C(=O)Nc1ccccc12 0.391

Can you share its z-score? I mean this compound: COC(=O)c1c(CC[C@@H](CO)NC(=O)N2CCC[C@H]2Cn2cc(Cc3ccccc3)nn2)oc(C(C)=O)c1C(=O)OC -1.85

Can you share its z-score? I mean this compound: C=CCN1C(=O)[C@@]2(CCS(=O)(=O)c3ccccc3)N=C(c3ccc(OCCCO)cc3)O[C@H]2c2ccccc21 -0.428

Can you share its z-score? I mean this compound: COC(=O)[C@@]1(Cc2ccc(OC)cc2)[C@H]2c3cc(C(=O)N(C)C)n(Cc4ccc(Cl)c(C(F)(F)F)c4)c3C[C@H]2CN1C(=O)c1ccccc1 1.57

Can you share its z-score? I mean this compound: CCOC(=O)C1=CC[C@@H](c2ccc(OCc3ccccc3)c(OC)c2)N(S(=O)(=O)c2ccc(C)cc2)[C@H]1c1ccc(SC)cc1 -0.508

Can you share its z-score? I mean this compound: C=CCNC(=O)[C@H]1[C@@H]2C(=O)O[C@@H](c3ccccc3)[C@@H](c3ccccc3)N2[C@@H](c2ccc(O)cc2)[C@]12C(=O)N(C(=O)OCCOC)c1ccccc12 0.605

Can you share its z-score? I mean this compound: O=C1NC(=O)C2C1C=CC(C(O)c1c(F)cccc1Cl)N2Nc1ccc(Cl)cc1Cl (configuration not stated) -2.57

Can you share its z-score? I mean this compound: O=C1O[C@H](c2ccccc2)[C@H](c2ccccc2)N2[C@H]1[C@@H](C(=O)NC[C@H](O)c1ccccc1)[C@]1(C(=O)Nc3ccc(C#CCCO)cc31)[C@H]2c1ccc(OCCO)cc1 0.275

Can you share its z-score? I mean this compound: C=C(C)c1cc2c(c(CCCCCC)n1)[Si](C(C)C)(C(C)C)OC2 -2.92

Can you share its z-score? I mean this compound: COC(=O)[C@@]1(Cc2ccc(OC)cc2)[C@H]2c3cc(C(=O)N4CCCC4)n(Cc4cccc5ccccc45)c3C[C@H]2CN1C(=O)c1ccccc1 -1.45

Can you share its z-score? I mean this compound: CCOC(=O)C1=CC[C@@H](c2ccccc2C(F)(F)F)N(S(=O)(=O)c2ccc(C)cc2)[C@H]1c1ccc(C#N)cc1 0.102
